- procedure_text: DAX1 (NR0B1) inhibitors on StAR promoter, primary screen, cell-based, luminescence, SF-1 (NR5A1), full-length DAX-1 (AID 652010);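 also: 0% = DAX-1 cells with DMSO and 100% = cells lacking DAX-1 with DMSO; higher inhibition means more luminescence from relief of DAX-1 repression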
- assay_context: HEK293T StAR-luciferase reporter, SF-1/DAX-1 repression relief; at 6.8 µM; active compounds read high
The whole screen tested about 370,000 compounds, of which about 4,100 (1.1%) were called active. Shown is part of a subset that was picked to be rich in actives.
Each entry below carries its recorded inhibition.
experimental_readout: inhibition (%)

[[record]]
structure_as_smiles = "Cc1cc(NC(=O)c2ccco2)c(=O)n(Cc2c(F)cccc2Cl)c1"
experimental_readout = "inhibition"
value_observed = -0.41

[[record]]
structure_as_smiles = "COc1ccc(S(=O)(=O)n2nc(C)c(S(=O)(=O)N3CCOCC3)c2C)cc1"
experimental_readout = "inhibition"
value_observed = -0.25

[[record]]
structure_as_smiles = "COC(=O)[C@]12C[C@H](CC(=O)NCc3cccc(C(F)(F)F)c3)C(=O)N(Cc3ccc4c(c3)OCO4)C1=C[C@H](COCc1ccccc1)O[C@@H]2C"
experimental_readout = "inhibition"
value_observed = -0.34

[[record]]
structure_as_smiles = "CCOC(=O)[C@]12CCCC=C1N(Cc1ccc(OC)cc1)C(=O)[C@@H]2CC(=O)N1CCOCC1"
experimental_readout = "inhibition"
value_observed = 0.04

[[record]]
structure_as_smiles = "Cn1c(=NC(=O)c2ccco2)sc2cccc(F)c21"
experimental_readout = "inhibition"
value_observed = 3.75


The values you see were collected from PubChem BioAssay AID652010.
